molecular target: hPin1 (Protein interacting with NIMA (-kinase)) (Homo sapiens); assay: protease-coupled PPIase assay, hPin1; type: biochemical; details: hPin1 6 nM; substrate Ac-Ala-Ala-Ser(PO3H2)-Pro-Arg-pNA, trypsin; 35 mM HEPES pH 7.8, 6° C.; read-out: Specificity of the inhibition with rotamases, Target T-1 (IC50 class)
pIC50: −log10 of the molar value.
measure: pIC50

{"compound": "NC(=O)[C@H](Cc1ccc2ccccc2c1)NC(=O)[C@@H]1CCCCN1C(=O)[C@H](CSCP(=O)(O)O)NC(=O)C1CCc2ccccc2C1 (stereo partly drawn)", "pIC50": "5.00 to 6.00"}
{"compound": "Cc1csc(C(Cc2ccc3ccccc3c2)NC(=O)[C@@H]2CCCCN2C(=O)CSCP(=O)(O)O)n1 (stereo partly drawn)", "pIC50": "5.00 to 6.00"}
{"compound": "NC(=O)[C@H](Cc1ccc2ccccc2c1)NC(=O)[C@@H]1CCCCN1C(=O)[C@H](CSCP(=O)(O)O)NC(=O)Cc1ccccc1", "pIC50": "> 6.00"}
{"compound": "NC(=O)[C@H](Cc1ccc2ccccc2c1)NC(=O)[C@@H]1CCCCN1C(=O)[C@H](CSCP(=O)(O)O)NS(=O)(=O)Cc1ccccc1", "pIC50": "> 6.00"}
{"compound": "CC(SCP(=O)(O)O)C(=O)N1CCCC[C@H]1C(=O)N[C@@H](Cc1ccc2ccccc2c1)C(N)=O (stereo in doubt)", "pIC50": "5.00 to 6.00"}

Ask | Look up pIC50 with hPin1 (Protein interacting with NIMA (-kinase)) (Homo sapiens) for this compound: COC(=O)N[C@@H](CSCP(=O)(O)O)C(=O)N1CCCC[C@H]1C(=O)N[C@@H](Cc1ccc2ccccc2c1)C(N)=O
Reply | 5.00 to 6.00

----------
target: hPin1 (Protein interacting with NIMA (-kinase)) (Homo sapiens); assay: protease-coupled PPIase assay, hPin1; assay type: biochemical
Where a SMILES comes first, the peptide text is derived from it. [ ]: non-standard residue; d: D form. The star is where a group is joined. X1 = O=C(O)c1cc(NC(=S)*)ccc1-c1c2ccc(=O)cc-2oc2cc(O)ccc12; 2Nal = N[C@@H](Cc1ccc2ccccc2c1)C(=O)O; Bta = N[C@@H](Cc1csc2ccccc12)C(=O)O; Pip = O=C(O)[C@@H]1CCCCN1; CH2PO3H2 = O=P(O)(O)C*; Inp = O=C(O)C1CCNCC1; Ahx = NCCCCCC(=O)O
measure: IC50

Worked examples, 3 compounds total:
{"compound": "NC(=O)[C@H](Cc1ccc2ccccc2c1)NC(=O)[C@@H]1CCCCN1C(=O)[C@H](CSCP(=O)(O)O)NC(=O)[C@H](Cc1csc2ccccc12)NC(=O)CCCCCNC(=S)Nc1ccc(-c2c3ccc(=O)cc-3oc3cc(O)ccc23)c(C(=O)O)c1 [Compound 9] ({X1-Ahx}-[Bta]C(CH2PO3H2)[Pip][2Nal]-NH2)", "IC50": "< 1000 nM"}
{"compound": "NC(=O)[C@H](Cc1ccc2ccccc2c1)NC(=O)[C@@H]1CCCCN1C(=O)[C@H](CSCP(=O)(O)O)NC(=O)[C@H](Cc1csc2ccccc12)NC(=O)C1CCNCC1 [Compound 18] (H-[Inp][Bta]C(CH2PO3H2)[Pip][2Nal]-NH2)", "IC50": "< 1000 nM"}
{"compound": "CC(=O)N[C@@H](Cc1csc2ccccc12)C(=O)N[C@@H](CSCP(=O)(O)O)C(=O)N1CCCC[C@H]1C(=O)N[C@@H](Cc1ccc2ccccc2c1)C(N)=O [Compound 2]", "IC50": "< 1000 nM"}

Ask | Fill in the blank: the reported IC50 of CC(=O)N[C@@H](Cc1csc2ccccc12)C(=O)N[C@@H](COCP(=O)(O)O)C(=O)N1CCCC[C@H]1C(=O)N[C@@H](Cc1ccc2ccccc2c1)C(N)=O [Compound 1] (Ac-[Bta]S(CH2PO3H2)[Pip][2Nal]-NH2) is ____.
Reply | 1000 to 10000 nM

Ask | Fill in the blank: the reported IC50 of NC(=O)[C@H](Cc1ccc2ccccc2c1)NC(=O)[C@@H]1CCCCN1C(=O)[C@H](CSCP(=O)(O)O)NC(=O)C1CSC(=O)N1 (some centres unmarked) [Compound 12] is ____.
Reply | < 1000 nM

----------
biological target: hPin1 (Protein interacting with NIMA (-kinase)) (Homo sapiens, UniProt Q13526); assay: protease-coupled PPIase assay, hPin1; type: biochemical; conditions: hPin1 6 nM; substrate Ac-Ala-Ala-Ser(PO3H2)-Pro-Arg-pNA, trypsin; 35 mM HEPES pH 7.8, 6° C.; read-out: Specificity of the inhibition with rotamases, Target T-1 (IC50 class)
Sequence (Q13526 whole entry): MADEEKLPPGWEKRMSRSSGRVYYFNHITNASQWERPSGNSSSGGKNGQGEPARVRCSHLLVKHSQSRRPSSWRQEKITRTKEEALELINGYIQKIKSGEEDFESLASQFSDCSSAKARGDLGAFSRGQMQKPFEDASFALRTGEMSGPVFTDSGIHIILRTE
measure: IC50

{"compound": "NC(=O)[C@H](Cc1ccc2ccccc2c1)NC(=O)[C@@H]1CCCCN1C(=O)[C@H](CSCP(=O)(O)O)NS(=O)(=O)c1ccccc1", "tested target": "hPin1 (Protein interacting with NIMA (-kinase)) (Homo sapiens, UniProt Q13526)", "measure": "IC50", "observed result": "< 1000 nM"}
{"compound": "Cc1cc(C)c(S(=O)(=O)N[C@@H](CSCP(=O)(O)O)C(=O)N2CCCC[C@H]2C(=O)N[C@@H](Cc2ccc3ccccc3c2)C(N)=O)c(C)c1", "tested target": "hPin1 (Protein interacting with NIMA (-kinase)) (Homo sapiens, UniProt Q13526)", "measure": "IC50", "observed result": "1000 to 10000 nM"}
{"compound": "NC(=O)[C@H](Cc1ccc2ccccc2c1)NC(=O)[C@@H]1CCCCN1C(=O)[C@H](CSCP(=O)(O)O)NC(=O)c1ccccc1", "tested target": "hPin1 (Protein interacting with NIMA (-kinase)) (Homo sapiens, UniProt Q13526)", "measure": "IC50", "observed result": "< 1000 nM"}

Ask | Fill in the blank: the reported IC50 of NC(=O)[C@H](Cc1ccc2ccccc2c1)NC(=O)[C@@H]1CCCCN1C(=O)[C@H](CSCP(=O)(O)O)NC(=O)C1(c2ccccc2)CCCC1 is ____.
Reply | 1000 to 10000 nM

----------
Each entry below carries its recorded IC50.
target: hPin1 (Protein interacting with NIMA (-kinase)) (Homo sapiens, UniProt Q13526); experiment: protease-coupled PPIase assay, hPin1; type: biochemical; conditions: hPin1 6 nM; substrate Ac-Ala-Ala-Ser(PO3H2)-Pro-Arg-pNA, trypsin; 35 mM HEPES pH 7.8, 6° C.; read-out: Specificity of the inhibition with rotamases, Target T-1 (IC50 class)
Where a SMILES comes first, the peptide text is derived from it. [ ]: non-standard residue; d: D form. The star is where a group is joined. 2Nal = N[C@@H](Cc1ccc2ccccc2c1)C(=O)O; Benzyl(3,4-Cl2) = Clc1ccc(C*)cc1Cl; Pip = O=C(O)[C@@H]1CCCCN1; CH2PO3H2 = O=P(O)(O)C*; Mpa = O=C(O)CCS

{"molecule": "NC(=O)[C@H](Cc1ccc2ccccc2c1)NC(=O)[C@@H]1CCCCN1C(=O)[C@H](CSCP(=O)(O)O)NC(=O)Cc1ccccc1Cl [Compound 34]", "IC50": "< 1000 nM"}
{"molecule": "O=C(NCc1ccccc1)[C@@H]1CCCCN1C(=O)CSCP(=O)(O)O [Compound 66]", "IC50": "1000 to 10000 nM"}
{"molecule": "NC(=O)[C@H](Cc1ccc2ccccc2c1)NC(=O)[C@@H]1CCCCN1C(=O)[C@H](CSCP(=O)(O)O)NC(=O)CCSCc1ccc(Cl)c(Cl)c1 [Compound 6] ([Mpa](Benzyl(3,4-Cl2))C(CH2PO3H2)[Pip][2Nal]-NH2)", "IC50": "1000 to 10000 nM"}

Ask | Look up IC50 with hPin1 (Protein interacting with NIMA (-kinase)) (Homo sapiens, UniProt Q13526) for this molecule: NC(=O)[C@H](Cc1ccc2ccccc2c1)NC(=O)[C@@H]1CCCCN1C(=O)[C@H](CSCP(=O)(O)O)NC(=O)CC1CCCCC1 [Compound 11]
Reply | 1000 to 10000 nM

Ask | Look up IC50 with hPin1 (Protein interacting with NIMA (-kinase)) (Homo sapiens, UniProt Q13526) for this molecule: CCCCOC(=O)N[C@@H](CSCP(=O)(O)O)C(=O)N1CCCC[C@H]1C(=O)N[C@@H](Cc1ccc2ccccc2c1)C(N)=O [Compound 44]
Reply | 1000 to 10000 nM

Ask | Look up IC50 with hPin1 (Protein interacting with NIMA (-kinase)) (Homo sapiens, UniProt Q13526) for this molecule: O=C(NC(Cc1ccc2ccccc2c1)c1nnc[nH]1)[C@@H]1CCCCN1C(=O)CSCP(=O)(O)O (stereo partly drawn) [Compound 76]
Reply | < 1000 nM
